// provenance: PubChem BioAssay (NCI)

# System: UACC-257 melanoma
# test.summary: NCI-60 one-dose screen, 48 h (100 = growth as untreated, 0 = no growth, -100 = all killed)
# experimental.conditions: 10 µM unless noted
This is part of a sample that, as a whole, favours compounds with a hit. Of some 83,000 tested, about 20% had one in any assay.
attribute.measured: growth (%)

compound=COc1cc(NC(=O)CSc2nc3ccc(Cl)cc3c(=O)n2-c2ccccc2)cc(OC)c1OC result_number=102
compound=CCN(CC)CCNC(=O)n1cc(-c2ccncc2)c(-c2ccc(Cl)c(OC)c2)n1 result_number=93.1
compound="N/C(=N\\OC(=O)c1ccccc1)C(C(=O)NOC(=O)c1ccccc1)C1CCCCC1 (stereo unspecified)" result_number=92.2
compound=O=C(CCCCCCN1CC(=O)N2[C@@H](c3ccc(Cl)c(Cl)c3)c3[nH]c4ccccc4c3C[C@H]2C1=O)NO result_number=65.5
compound=CCCCCCCCCCCCCCCCCC(=O)[O][Sn]([CH2]CCC)([CH2]CCC)[CH2]CCC result_number=-86.1
compound="CN1C(=O)N(C)C2C1NN=c1s/c(=C\\c3ccc(Br)cc3)c(=O)n12 (stereo unspecified)" result_number=46
